assay.system: Human immunodeficiency virus type 1 protease (Human immunodeficiency virus 1, UniProt Q72874, Q7K)
method.summary: Inhibition of wild type HIV1 protease Q7K mutant
pKi: −log10 of the molar value.
Assign 1 to entries whose pKi meets or exceeds 9; assign -1 to the rest.

compound	group
COc1cccc(S(=O)(=O)N(CC2CCCO2)C[C@@H](O)[C@H](Cc2ccccc2)NC(=O)[C@@H]2CN(c3cccc(F)c3)C(=O)O2)c1 (single isomer, unassigned)	-1
O=C(N[C@@H](Cc1ccccc1)[C@H](O)CN(Cc1cccs1)S(=O)(=O)c1cc(F)c(F)cc1F)[C@@H]1CN(c2cccc(F)c2)C(=O)O1	-1
COc1ccc(S(=O)(=O)N(CC(C)C)C[C@@H](O)[C@H](Cc2ccccc2)NC(=O)[C@@H]2CN(c3cccc(F)c3)C(=O)O2)cc1	1
COc1ccc(S(=O)(=O)N(CC(C)C)C[C@@H](O)[C@H](Cc2ccccc2)NC(=O)[C@@H]2CN(c3ccc(C(C)=O)cc3)C(=O)O2)cc1F	1
